Protocol Notes: In vivo rat pharmacokinetics experiments
Details: intravenous bolus 0.5 to 1 mg/kg, non-compartmental analysis
Method: Example 99: Protocol for Testing PAR2 Compounds In Vivo Rat Pharmacokinetics Experiments […] Rats were bled by venipuncture (jugular vein) and the samples were collected into tubes containing K3EDTA. […] Pharmacokinetic parameters were calculated using non-compartmental analysis.
Observed Property: Clp (mL/min/kg)
Write the value in mL/min/kg as a bare number.

Field request: Clp | item: CC1(C)CCC(c2cc(C(C)(C)C)c3oc(C(=O)N4CCN(c5cccc(-c6nnn[nH]6)n5)CC4(C)C)cc3n2)CC1 [Compound I-345]
7.6

Field request: Clp | item: Cc1nc(N2CCN(C(=O)c3cc4nc(C5CCC(C)(C)CC5)cc(C(C)(C)C)c4o3)C(C)(C)C2)ncc1C(=O)O [Compound I-465]
9.2

Field request: Clp | item: CC(C)(CCC(=O)N1CCN(C(=O)c2cc3nc(-c4ccc(Cl)c(F)c4)cc(C(C)(C)C)c3o2)C(C)(C)C1)C(=O)O [Compound I-367]
28

Field request: Clp | item: CC1(C)CCC(c2cc(C(C)(C)C)c3oc(C(=O)N4CCN(C(=O)CCC(C)(C)C(=O)O)CC4(C)C)cc3n2)CC1 [Compound I-354]
32

Field request: Clp | item: CC(C)(C)c1cc(-c2ccc(Cl)c(F)c2)nc2cc(C(=O)N3CCN(c4ncc(-c5nnn[nH]5)cn4)CC3(C)C)oc12 [Compound I-331]
8.9

Field request: Clp | item: CC(C)[C@H](CC(=O)N1CCN(C(=O)c2cc3nc(-c4ccc(Cl)c(F)c4)cc(C(C)(C)C)c3o2)C(C)(C)C1)C(=O)O [Compound I-343]
53

Field request: Clp | item: CC(C)(C)c1cc(-c2ccc(Cl)c(F)c2)nc2cc(C(=O)N3CCN(c4cccc(-c5nnn[nH]5)n4)CC3(C)C)oc12 [Compound I-344]
10.2

Field request: Clp | item: Cc1nc(N2CCN(C(=O)c3cc4nc(-c5ccc(Cl)c(F)c5)cc(C(C)(C)C)c4o3)C(C)(C)C2)ccc1C(=O)O [Compound I-411]
6.5

###

Target Entity: PAR2 (HT-29 cells) (Homo sapiens, UniProt P55085)
Construct: host or cells: HT-29
Sequence (P55085 26-397): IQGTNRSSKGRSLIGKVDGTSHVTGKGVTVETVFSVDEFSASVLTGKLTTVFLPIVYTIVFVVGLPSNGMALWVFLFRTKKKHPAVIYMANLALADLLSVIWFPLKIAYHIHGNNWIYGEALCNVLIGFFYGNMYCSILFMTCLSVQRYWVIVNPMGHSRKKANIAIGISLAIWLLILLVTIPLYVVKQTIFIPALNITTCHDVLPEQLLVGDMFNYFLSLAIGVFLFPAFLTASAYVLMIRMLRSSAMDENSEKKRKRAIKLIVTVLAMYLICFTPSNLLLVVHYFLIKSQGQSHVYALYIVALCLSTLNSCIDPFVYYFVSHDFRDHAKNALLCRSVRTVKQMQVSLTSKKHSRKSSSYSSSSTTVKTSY
Protocol Notes: Ca FLIPR TETRA assay, ANTAGONIST mode, activator 8 μM SLIGKV
Format: cell-based
Details: HT-29 cells; activator 8 μM SLIGKV; Method A: maximal concentration of antagonist 0.1, 1 or 2 μM
Observed Property: log10(IC50) (log10 of the value in nM)
Please keep in mind that the values are log10 of IC50 expressed in nM.

Field request: log10(IC50) | item: Cc1ccc(N2CCN(C(=O)c3cc4nc(-c5ccc(Cl)c(F)c5)cc(C(C)(C)C)c4o3)C(C)(C)C2=O)nn1 [Example I-355]
1.15

Field request: log10(IC50) | item: COc1nc(N2CCN(C(=O)c3cc4nc(C5CCC(C)(C)CC5)cc(C(C)(C)C)c4o3)C(C)(C)C2)ccc1C(=O)O [Example I-535]
0.32

Field request: log10(IC50) | item: CN1CCN(C(=O)c2cc3nc(-c4ccc(Cl)c(F)c4)cc(C(C)(C)C)c3o2)C(C)(C)CC1=O [Example I-522]
0.40

Field request: log10(IC50) | item: Cc1cc(C(=O)O)nc(N2CCN(C(=O)c3cc4nc(-c5ccc(Cl)c(F)c5)cc(C(C)(C)C)c4o3)C(C)(C)C2=O)n1 [Example I-409]
-0.52

Field request: log10(IC50) | item: CC(C)(C)c1cc(-c2ccc(Cl)c(F)c2)nc2cc(C(=O)N3CCN(C(=O)NS(C)(=O)=O)CC3(C)C)oc12 [Example I-527]
1.49

Field request: log10(IC50) | item: CC(C)(CN1CCN(C(=O)c2cc3nc(-c4ccc(Cl)c(F)c4)cc(C(C)(C)C)c3o2)C(C)(C)C1=O)C(=O)O [Example I-484]
-0.30

Field request: log10(IC50) | item: Cc1ccc(N2CCN(C(=O)c3cc4nc(-c5ccc(Cl)cc5)cc(C(C)(C)C)c4o3)C(C)(C)C2)nc1 [Example I-395]
1.75

Field request: log10(IC50) | item: CC(C)(C)c1cc(-c2ccc(Cl)c(F)c2)nc2cc(C(=O)N3CCN(C(=O)CC4(C(=O)O)CCCCC4)CC3(C)C)oc12 [Example I-547]
-1.05

Field request: log10(IC50) | item: CC(C)(C)c1cc(C2CC3(CCC3)C2)nc2cc(C(=O)N3CCN(C(=O)[C@H]4CC[C@](C)(C(=O)O)CC4)CC3(C)C)oc12 [Example I-298]
1.15

Field request: log10(IC50) | item: CC(C)(C)c1cc(-c2ccc(Cl)c(F)c2)nc2cc(C(=O)N3CCN(c4ncccn4)C(=O)C3(C)C)oc12 [Example I-361]
0.45

Field request: log10(IC50) | item: CC(C)(C)c1cc(C2CC3(CCC3)C2)nc2cc(C(=O)N3CCN(C(=O)[C@@H]4CNCCO4)CC3(C)C)oc12 [Example I-444]
1.81

Field request: log10(IC50) | item: CC(C)(C)c1cc(-c2ccc(Cl)c(F)c2)nc2cc(C(=O)N3CCC(c4nc(C(=O)O)cs4)CC3(C)C)oc12 (stereo not shown) [Example I-424]
-1.00

Field request: log10(IC50) | item: CC(C)(C)c1cc(-c2ccc(Cl)cc2)nc2cc(C(=O)N3CCN(c4ccnnc4)CC3(C)C)oc12 [Example I-349]
1.90

###

Target Entity: PAR2 (HT-29 cells) (Homo sapiens)
Construct: host or cells: HT-29
Sequence (P55085 26-397): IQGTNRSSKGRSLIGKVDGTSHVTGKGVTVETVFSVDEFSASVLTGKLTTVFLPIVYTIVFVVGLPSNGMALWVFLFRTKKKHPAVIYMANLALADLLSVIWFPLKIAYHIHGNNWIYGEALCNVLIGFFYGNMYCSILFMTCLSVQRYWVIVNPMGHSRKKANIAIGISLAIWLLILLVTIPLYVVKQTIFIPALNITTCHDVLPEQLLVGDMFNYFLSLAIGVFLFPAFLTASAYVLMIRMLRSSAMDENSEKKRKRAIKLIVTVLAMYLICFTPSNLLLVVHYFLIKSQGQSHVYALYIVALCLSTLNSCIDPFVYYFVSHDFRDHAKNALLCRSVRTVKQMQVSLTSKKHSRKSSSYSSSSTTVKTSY
Protocol Notes: Ca FLIPR TETRA assay, ANTAGONIST mode, activator 8 μM SLIGKV
Type: cell-based
Details: HT-29 cells; activator 8 μM SLIGKV; Method A: maximal concentration of antagonist 0.1, 1 or 2 μM
Task for the reader: assign each of the following compounds its reported pIC50.
Worth noting: pIC50 values are minus log10 of concentrations stated in mol/L.

Field request: pIC50 | item: Cn1cnnc1N1CCN(C(=O)c2cc3nc(-c4ccc(Cl)c(F)c4)cc(C(C)(C)C)c3o2)C(C)(C)C1 [Example I-318]
8.55

Field request: pIC50 | item: Cc1cc(N2CCN(C(=O)c3cc4nc(C5CCC(C)(C)CC5)cc(C(C)(C)C)c4o3)C(C)(C)C2)ncc1C(=O)O [Example I-398]
9.40

Field request: pIC50 | item: CC(C)(C)c1cc(N2CCC[C@H]2C(F)(F)F)nc2cc(C(=O)N3CCN(C(=O)[C@H]4C[C@](C)(O)C4)CC3(C)C)oc12 [Example I-434]
7.59

Field request: pIC50 | item: Cc1cc(C(=O)O)nc(N2CCN(C(=O)c3cc4nc(C5CCC(C)(C)CC5)cc(C(C)(C)C)c4o3)C(C)(C)C2)n1 [Example I-408]
9.15

Field request: pIC50 | item: CC(C)(C)c1cc(-c2ccc(Cl)c(F)c2)nc2cc(C(=O)N3CCN(c4cccnn4)C(=O)C3(C)C)oc12 [Example I-357]
8.08

Field request: pIC50 | item: Cc1nc(N2CCN(C(=O)c3cc4nc(-c5ccc(Cl)c(F)c5)cc(C(C)(C)C)c4o3)C(C)(C)C2)oc1C(=O)O [Example I-476]
9.15

Field request: pIC50 | item: CC1(C)CCC(c2cc(C(C)(C)C)c3oc(C(=O)N4CCN(c5cn[nH]c5)C(=O)C4(C)C)cc3n2)CC1 [Example I-315]
8.24

Field request: pIC50 | item: CC(C)(C)c1cc(-c2ccc(F)cc2)nc2cc(C(=O)N3CCN(N4CCNC(=O)CC4(C)C)CC3(C)C)oc12 [Example I-454]
7.39

Field request: pIC50 | item: Cc1cnc(N2CCN(C(=O)c3cc4nc(-c5ccc(Cl)cc5)cc(C(C)(C)C)c4o3)C(C)(C)C2)nc1C(=O)O [Example I-521]
9.15

Field request: pIC50 | item: Cc1ccc(N2CCN(C(=O)c3cc4nc(C5CCC(C)(C)CC5)cc(C(C)(C)C)c4o3)C(C)(C)C2=O)nc1C(=O)O [Example I-488]
8.19

Field request: pIC50 | item: Cc1nccc(N2CCN(C(=O)c3cc4nc(-c5ccc(Cl)cc5)cc(C(C)(C)C)c4o3)C(C)(C)C2)n1 [Example I-389]
7.66

Field request: pIC50 | item: Cn1cc(N2CCN(C(=O)c3cc4nc(-c5ccc(Cl)c(F)c5)cc(C(C)(C)C)c4o3)C(C)(C)C2=O)nn1 [Example I-356]
7.92

Field request: pIC50 | item: CC(C)(C)c1cc(-c2ccc(Cl)c(F)c2)nc2cc(C(=O)N3CCN(C(=O)C4CC5(CC(C(=O)O)C5)C4)C(=O)C3(C)C)oc12 (stereo not shown) [Example I-362]
9.15
